- Tested on: wheat
- measurement_protocol: Test B pre/postemergence wheat
- Format: in vivo, Triticum aestivum
- applied_conditions: Rate 250 g/ha, Postemergence; scale of 0 to 10 where 0 is no effect and 10 is complete control
- Method: […] At the same time, these crop and weed species were also treated with postemergence applications of test chemicals formulated in the same manner. […] Treated plants and controls were maintained in a greenhouse for twelve to sixteen days, after which all species were compared to controls and visually evaluated. […]
recorded_endpoint: Plant response rating, Wheat
Numbers only.

- compound: "CC(C)N(C(=O)n1oc(=O)n(C(C)C)c1=O)c1cnccn1 [Compound 296]"
  numeric_result: 0
- compound: "C=CCn1c(=O)on(C(=O)N(CC)C2CCCCC2)c1=O [Compound 307]"
  numeric_result: 0
- compound: "CC(C)N(C(=O)n1oc(=O)n(CC2CCC2)c1=O)c1ccc(F)cc1F [Compound 521]"
  numeric_result: 0

// switching to the query compound
Reading of Plant response rating, Wheat for CC(C)N(C(=O)n1oc(=O)n(C2CCOCC2)c1=O)c1ccc(F)cc1 [Compound 310] with wheat: 6
